# ED50 per entry
system: pregnancy in female Sprague Dawley rats; assay: Pregnancy termination activity in rats after a single subcutaneous injection at day 7 of gestation; format: in vivo, rat (Sprague Dawley); details: sc, rat, single s.c. injection, dissolved in sesame oil containing 20% benzyl benzoate (or suspended if insoluble), autopsy day 16, read-out: ED50 (dose terminating pregnancy, absence of live fetuses, in 50% of the treated animals)
measurementKind: ED50 (mg/kg)

compound: COc1cccc(-c2n[nH]c(-c3ccccc3COC(C)=O)n2)c1 [reference compound]
target: pregnancy in female Sprague Dawley rats
measureUnit: mg/kg
reportedResult: 50
//
compound: CCCCCCCC(=O)OCc1ccccc1-c1nc(-c2cccc(OC)c2)n[nH]1
target: pregnancy in female Sprague Dawley rats
measureUnit: mg/kg
reportedResult: 13
//
compound: CCCCCCCCCCCC(=O)OCc1ccccc1-c1nc(-c2ccc(OC)c(OC)c2)n[nH]1
target: pregnancy in female Sprague Dawley rats
measureUnit: mg/kg
reportedResult: 2
//
compound: CCCCCCCC(=O)OCc1ccccc1-c1nc(-c2cccc(OCC)c2)n[nH]1
target: pregnancy in female Sprague Dawley rats
measureUnit: mg/kg
reportedResult: 4
//
compound: CCCCCCCCCCCC(=O)OCc1ccccc1-c1nc(-c2cccc(OC)c2)n[nH]1
target: pregnancy in female Sprague Dawley rats
measureUnit: mg/kg
reportedResult: 2
//
compound: CCCCCCCCCC(=O)OCc1ccccc1-c1nc(-c2cccc(OCC)c2)n[nH]1
target: pregnancy in female Sprague Dawley rats
measureUnit: mg/kg
reportedResult: 2
//
compound: CCCCCCCCCC(=O)OCc1ccccc1-c1nc(-c2ccc(OC)c(OC)c2)n[nH]1
target: pregnancy in female Sprague Dawley rats
measureUnit: mg/kg
reportedResult: 10
//
compound: CCCCCCCCCC(=O)OCc1ccccc1-c1nc(-c2cccc(OC)c2)n[nH]1
target: pregnancy in female Sprague Dawley rats
measureUnit: mg/kg
reportedResult: 2
//
compound: CCCCCC(=O)OCc1ccccc1-c1nc(-c2cccc(OCC)c2)n[nH]1
target: pregnancy in female Sprague Dawley rats
measureUnit: mg/kg
reportedResult: 7
